For each entry below, report its GI50 value.
# System: A498
# EXPERIMENT_SUMMARY: NCI tumour cell line growth inhibition, 48 h
Activity calls are given as the source filed them. Rule as the data show it: active = GI50 up to about 1.1 µM and inactive = higher.

N[C@H](CCC(=O)NCP(=O)(O)O)C(=O)O ... > 100 µM (inactive)

Look at each molecule and report its GI50.
1. COc1ccc(/C=C2\OC(=O)C(Cl)=C2c2ccc(OC)c(Cl)c2)cc1
2. CC1=CC(=O)N(n2c(Cc3ccccc3)n[nH]c2=O)C1=O

Out:
17.7 µM (inactive)
> 100 µM (inactive)

====

# System: HL-60
# EXPERIMENT_SUMMARY: NCI tumour cell line growth inhibition, 48 h
The source made the active and inactive calls. Rule as the data show it: active = GI50 up to about 1.1 µM and inactive = higher.
Response enum: Y = active, N = inactive

Some solved entries appear below for comparison.
Cc1ccc2c(c1)CC1(Cc3ccccc3C1=O)C2=O (stereo not given) ... N
COc1ccc(/C=C2/N/C(=N\N=C/C(O)C(O)C(O)CO)NC2=O)cc1 (stereo not given) ... N
Cc1ccc(CC(Cc2ccc(C)cc2C(=O)O)C(=O)O)cc1 (stereo not given) ... N
O=C(/C=C/C(=O)N1CCCC1)N1CCCC1 ... N
C=CCC(CCC(C)=O)(C(=O)OCC)C(=O)OCC ... N

Note: attention shifts to another entry.
In: Each molecule tested received a call. Report the one for `CC(=O)Oc1ccc2cc(Oc3cc(Cl)c(Cl)cc3Cl)c(=O)oc2c1` .
Out: N

====

Assign GI50 to each entry below.
# Test system: SNB-19
# EXPERIMENT_SUMMARY: NCI tumour cell line growth inhibition, 48 h
Active and inactive are the calls of the source. Rule as the data show it: active = GI50 up to about 1.1 µM and inactive = higher.

COC(=O)c1c2cccccc-2c(Cc2c3cccccc-3c(C(=O)OC)c2O)c1O ... > 100 µM (inactive)

# return GI50 for each item in the list
1. CCOC(=O)C(=O)C(C#N)c1ccc(Cl)cc1 (stereo not given)
2. O=C(Cn1ccnc1[N+](=O)[O-])c1ccccc1

Out:
1. > 100 µM (inactive)
2. > 100 µM (inactive)

Hi team, please reply with GI50 for each item in this list.
1. CC(=O)N/C(=C\c1cccc([N+](=O)[O-])c1)c1nc2ccc3c(c2[nH]1)C(=O)c1ccccc1C3=O
2. O=C1/C(=C(/Br)I)c2ccccc2-c2ccccc21

Out:
["> 100 µM (inactive)", "13.9 µM (inactive)"]

====

# System: MCF7
# EXPERIMENT_SUMMARY: NCI tumour cell line growth inhibition, 48 h
The source made the active and inactive calls. No stated cut-off is given here; in the data, active = GI50 up to about 1.1 µM and inactive = higher.
OUTCOME_MEASURE: GI50

Answer for every listed entry: what is its GI50? The entries follow.
1. CC(=O)c1c(=O)n(-c2ccc(C)cc2)c(O)c2c(N)n[nH]c12
2. O=C1C(Cl)=C(NCCc2ccc(O)cc2)C(=O)c2c(O)ccc(O)c21
3. OC(C/C=N/Nc1ccccc1)(C(F)(F)Cl)C(F)(F)Cl
4. CN1CC[N+](C)=C1c1ccccc1
5. C=CCC(CCC(C)=O)(C(=O)OCC)C(=O)OCC

Out:
> 100 µM (inactive)
4.13 µM (inactive)
> 10 µM (inactive)
> 100 µM (inactive)
> 100 µM (inactive)

Dear reader, for each entry below, please note its GI50.
1. CS[C@]12C(=O)C[C@@]3(C)[C@@H](CC[C@]3(O)C(=O)CO)[C@@H]1CCC1=CC(=O)CC[C@@]12C
2. CS/C(C#N)=C(\C#N)SC
3. CCOC(=O)/C(C(=O)Nc1ccc(F)cc1)=C(/N)N1CCOCC1
4. CN(C)CCNC(=O)c1cccc(C(=O)Nc2ccccc2)c1[N+](=O)[O-]

Out:
1. > 100 µM (inactive)
2. 2.22 µM (inactive)
3. > 100 µM (inactive)
4. > 100 µM (inactive)
